Test system: rev protein
Assay: Saturation filter binding of rev to labelled RNA transcripts
Parameters: species or system HIV-1
Conditions: Table I; 10 nM rev, 50 mM KCl
API: label(entry) gives t if the entry's % RNA bound (10 nM rev) is strictly smaller than 5%; on equality or larger values it gives f.

Completed entries (count: 3):
>>> class_assignment("R33: stem-loop of residues 33 to 63, A56 deleted, inserted on top of a stem containing 9 base pairs; wild-type bubble (GGGAGACCGGAAUUCUGGGCGCAGUGUCAUUGACGCUGCGGUACAGAAUUCCGGCA; chemistry not given here)")
"f"
>>> class_assignment("R34 (GGGAGACCGGAAUUCUGCGCAGUGUCAUUGACGCUGCGGUACAGAAUUCCGGC; chemistry not given here)")
"t"
>>> class_assignment("R35 (GGGAGACCGGAAUUCUGGCGCAGUGUCAUUGACGCUGCGGUACAGAAUUCCGGCA; chemistry not given here)")
"f"

# ---- query substance ----
# check: % RNA bound (10 nM rev) < 5% for R36 (GGGAGACCGGAAUUCUGGGCGCAGUGUCAUUGACGCUGCGCAGAAUUCCGGCA; chemistry not given here)
t
